- System: A. baumannii JMI7
- PROCEDURE SUMMARY: In vitro antimicrobial activity, MIC by broth microdilution (CLSI)
- Assay type: cell-based
- CONDITION PARAMETERS: Acinetobacter baumannii, JMI7; PER-1, OXA-23, 51, ESBL and OXA-type carbapenemase producing strain; 5×10^5 cfu/mL; cation-adjusted Iso-Sensitest broth containing human Apo-transferrin; read-out: Minimum Inhibitory Concentration (MIC) A. baumannii JMI:7
- Procedure: Compound (I) of the invention was evaluated for in vitro antimicrobial activity thereof. Measurement of Minimum Inhibitory Concentration (MIC: μg/mL) was conducted according to CLSI (Clinical and Laboratory Standards Institute) method, and the amount of bacteria for inoculation was 5×10^5 cfu/mL, and cation-adjusted Iso-Sensitest broth containing human Apo-transferrin was used as a test medium, and the experiment was conducted using broth microdilution method. The bacteria used are listed below.
Readings of MIC for the listed molecules
The reply should contain only the number, in µg/mL.

C[C@@H]1S[C@@H]2[C@H](NC(=O)/C(=N\OC(C)(C)C(=O)[O-])c3csc(N)n3)C(=O)N2C(C(=O)[O-])=C1C[N+]1(C)C[C@H]2CN(C(=O)c3cc(O)c(O)c(Cl)c3)C[C@H]2C1.[Na+] (stereo partly drawn) ... 1
C[C@@H]1S[C@@H]2[C@H](NC(=O)/C(=N\OC(C)(C)C(=O)[O-])c3csc(N)n3)C(=O)N2C(C(=O)[O-])=C1C[N+]12CCC(CNC(=O)c3cc(O)c(O)c(Cl)c3)(CC1)CC2.[Na+] ... 1
C[C@@H]1S[C@@H]2[C@H](NC(=O)/C(=N\OC(C)(C)C(=O)[O-])c3csc(N)n3)C(=O)N2C(C(=O)O)=C1C[N@+]1(C)[C@@H]2CC[C@H]1C[C@@H](NC(=O)c1ccc(O)c(O)c1Cl)C2 ... 0.5

Query string: Could you share which MIC value was measured for `C[C@@H]1S[C@@H]2[C@H](NC(=O)/C(=N\OC(C)(C)C(=O)[O-])c3csc(N)n3)C(=O)N2C(C(=O)O)=C1C[N+]12CCC(CNN3C(=O)c4cc(O)c(O)cc4C3=O)(CC1)CC2` ?
Result string: 0.5

Query string: # iterate: `C[C@@H]1S[C@@H]2[C@H](NC(=O)/C(=N\OC(C)(C)C(=O)[O-])c3csc(N)n3)C(=O)N2C(C(=O)O)=C1C[N+]12CCC(Cn3[nH]c(=O)c4cc(O)c(O)cc4c3=O)(CC1)CC2`
Result string: 0.5

Query string: Next entry: `C[C@@H]1S[C@@H]2[C@H](NC(=O)/C(=N\OC(C)(C)C(=O)O)c3csc(N)n3)C(=O)N2C(C(=O)O)=C1C[N+]12CCC(CNC(=O)/C(=N\OC(C)(C)C(=O)[O-])c3ccc(O)c(O)c3Cl)(CC1)CC2`
Result string: 2

Query string: Also, `C[C@@H]1S[C@@H]2[C@H](NC(=O)/C(=N\OC(C)(C)C(=O)[O-])c3csc(N)n3)C(=O)N2C(C(=O)[O-])=C1C[N+]12CCC(CC1)N(C(=O)c1cc(O)c(O)c(F)c1)CC2.[Na+]` please.
Result string: 1

Query string: Request: `CO/N=C(\C(=O)NCC12CC[N+](CC3=C(C(=O)O)N4C(=O)[C@@H](NC(=O)/C(=N\OC(C)(C)C(=O)[O-])c5csc(N)n5)[C@H]4S[C@H]3C)(CC1)CC2)c1ccc(O)c(O)c1Cl`
Result string: 1

Query string: Next molecule: `C[C@@H]1S[C@@H]2[C@H](NC(=O)/C(=N\OC(C)(C)C(=O)[O-])c3csc(N)n3)C(=O)N2C(C(=O)[O-])=C1C[N@+]1(C)[C@@H]2CC[C@H]1C[C@@H](NC(=O)C(=O)c1cc(O)c(O)c(F)c1)C2.[Na+]`
Result string: 0.5
